- TESTED TARGET: BRD4-D1 (Homo sapiens)
- Construct: His6 BRD4 D1 were expressed and purified as reported by A. K. Urick; His6; made in house
- MEASUREMENT PROTOCOL: Fluorescence anisotropy competition with Fl-JQ1
- Format: binding
- CONDITION DETAILS: mean and SEM of three biological replicates, read-out: BRD4 D1 IC50 by FA
Entries whose IC50 is below 9 µM take true; entries at or above 9 µM take false.

Exercise: IC50 strictly < 9 µM for this molecule? Cc1cc(C)cc(Nc2nccc(-c3c(-c4ccc(Cl)cc4)ncn3C3CCN(C(=N)N)CC3)n2)c1
Key: true

Exercise: API: query returns whether the molecule falls strictly under 9 µM in IC50. Query: Cc1cc(C)cc(Oc2nccc(-c3c(C)nnn3C3CCN(C(=N)N)CC3)n2)c1 [drawing 222]
Key: false

Exercise: Is IC50 strictly under 9 µM for the entry Cc1cc(C)cc(Oc2cc(-c3c(C)nnn3C3CCN(C(=N)N)CC3)ccn2)c1 [drawing 225] ?
Key: false

Exercise: Threshold test, IC50 < 9 µM: Cc1cc(C)cc(Oc2cccc(-c3c(C)nnn3C3CCN(C(=N)N)CC3)n2)c1 [drawing 224]
Key: true

Exercise: Just wondering, is IC50 of Cc1ccc(Nc2nccc(-c3c(-c4ccc(F)cc4)ncn3C3CCNCC3)n2)cc1C below 9 µM?
Key: true

Exercise: Strictly below 9 µM in IC50? CCCc1nnn(C2CCNCC2)c1-c1ccnc(Oc2cc(C)cc(C)c2)n1
Key: false

Exercise: Bench note: check whether Cc1cc(C)cc(Nc2nccc(-c3c(-c4ccc(C(F)(F)F)cc4)ncn3C3CCN(CCN(C)C)CC3)n2)c1 shows IC50 below 9 µM
Key: true

Exercise: Determine if CCCCc1cc(CCCC)cc(Oc2cccc(-c3c(C)nnn3C3CCNCC3)n2)c1 [drawing 259] shows IC50 strictly lower than 9 µM.
Key: true

Exercise: Here's an entry: Cc1cc(C)cc(Oc2cncc(-c3c(C)nnn3C3CCNCC3)c2)c1 . Is its IC50 below 9 µM?
Key: false

====

- TESTED TARGET: BRD4-D1 (Homo sapiens)
- Construct: His6 BRD4 D1 were expressed and purified as reported by A. K. Urick; His6; made in house
- MEASUREMENT PROTOCOL: Fluorescence anisotropy competition with Fl-JQ1
- Format: binding
- CONDITION DETAILS: mean and SEM of three biological replicates, read-out: BRD4 D1 IC50 by FA
Entries are grouped by IC50 into these classes: 1: < 3 µM; 2: ≥ 3 µM and < 10 µM; 3: ≥ 10 µM

Exercise: Consider CCC(C)c1cc(C)cc(Oc2cccc(-c3c(C)nnn3C3CCNCC3)n2)c1 (centres unmarked) [drawing 252] . To which IC50 class does it belong?
Key: 2

Exercise: Class (by measured IC50) for Cc1cc(C)cc(Nc2nccc(-c3c(-c4ccc(F)cc4)nnn3C3CCNCC3)n2)c1
Key: 3

Exercise: Place this molecule in its band: Fc1ccc(-c2ncn(C3CCNCC3)c2-c2ccnc(Oc3cc(F)cc(F)c3)n2)cc1
Key: 3

Exercise: Any idea which band Cc1cc(C)cc(Oc2nccc(-c3c(C4CC4)nnn3C3CCN(C(=N)N)CC3)n2)c1 is in?
Key: 3

Exercise: # classify by IC50 band: Cc1cc(C)cc(Nc2cccc(-c3c(C)nnn3C3CCNCC3)n2)c1
Key: 2

Exercise: Categorize the following entry: Cc1cc(C)cc(Oc2nccc(-c3c(C(C)C)nnn3C3CCNCC3)n2)c1
Key: 3

Exercise: Kindly state the category for this molecule: Cc1cc(C)cc(Nc2nccc(-c3c(-c4ccccc4)ncn3C3CCNCC3)n2)c1
Key: 2

Exercise: Given Cc1cc(C)cc(Oc2cccc(-c3c(-c4ccc(C(F)(F)F)cc4)ncn3C3CCN(CCN)CC3)n2)c1 , name the class its IC50 places it in.
Key: 1

Exercise: Note: place this molecule into its band. Item: Cc1cc(C)cc(Oc2ccnc(-c3c(C)nnn3C3CCN(C(=N)N)CC3)c2)c1 [drawing 227]
Key: 3

Exercise: Tag the class for Cc1cc(C)cc(Oc2cccc(-c3c(C)nnn3C3CCN(C(=N)N)CC3)c2)c1 [drawing 223]
Key: 3

Exercise: In plain terms, what class is Cc1cc(C)cc(Oc2ccnc(-c3c(C)nnn3C3CCNCC3)c2)c1 ?
Key: 3

Exercise: Sort into band: CC(=O)NCCN1CCC(n2cnc(-c3ccc(C(F)(F)F)cc3)c2-c2ccnc(Nc3cc(C)cc(C)c3)n2)CC1
Key: 1

Exercise: Tag the class for Cc1nnn(C2CCNCC2)c1-c1cccc(Oc2cc(C3CCCCC3)cc(C3CCCCC3)c2)n1 [drawing 261]
Key: 3

Exercise: Which band does Cc1cc(Oc2cccc(-c3c(C)nnn3C3CCNCC3)n2)cc(C2CCCC2)c1 [drawing 253] fall in?
Key: 2

Exercise: Form: Item = Cc1cc(C)cc(Oc2cc(-c3c(C)nnn3C3CCNCC3)ccn2)c1 ; Class = ?
Key: 3

Exercise: Sort Cc1cc(C)cc(Nc2cccc(-c3c(C)nnn3C3CCN(C(=N)N)CC3)n2)c1 into one of the categories.
Key: 2

Exercise: // bin(item) where item = Cc1ccc(-c2ncn(C3CCNCC3)c2-c2ccnc(Nc3cc(C)cc(C)c3)n2)cc1
Key: 1

====

- TESTED TARGET: BRD4-D1 (Homo sapiens)
- Construct: His6 BRD4 D1 were expressed and purified as reported by A. K. Urick; His6; made in house
- MEASUREMENT PROTOCOL: Fluorescence anisotropy competition with Fl-JQ1
- Assay type: binding
- CONDITION DETAILS: mean and standard deviation of three independent trials, read-out: IC50 BRD4-D1
Exercise: for every item that follows, state its recorded IC50.
Your answer should be a plain number; it is taken to be in µM.

Exercise: Report IC50 under test system BRD4-D1 (Homo sapiens) for Cc1cc(C)cc(Oc2nccc(-c3c(C)nnn3C3CCN(C(=N)N)CC3)n2)c1 [drawing 179] .
Key: 9.7

Exercise: Give measured IC50 for CCC(C)c1cc(C)cc(Oc2cccc(-c3c(C)nnn3C3CCNCC3)n2)c1 (stereo not shown) [drawing 188] (BRD4-D1 (Homo sapiens)).
Key: 3.21

Exercise: Please respond with reported IC50 (system BRD4-D1 (Homo sapiens)) for Cc1cc(C)cc(Oc2cc(-c3c(C)nnn3C3CCN(C(=N)N)CC3)ccn2)c1 [drawing 182] .
Key: 97

Exercise: Lab note: BRD4-D1 (Homo sapiens) assay, enter IC50 for Cc1cc(C)cc(Oc2nccc(-c3c(C)nnn3C3CCNCC3)n2)c1 here
Key: 3.01

Exercise: Identify measured IC50 obtained with BRD4-D1 (Homo sapiens) for Cc1cc(Oc2cccc(-c3c(C)nnn3C3CCNCC3)n2)cc(C2CCCC2)c1 [drawing 189] .
Key: 4.44

Exercise: Under BRD4-D1 (Homo sapiens): report IC50 of Cc1cc(C)cc(Oc2cccc(-c3c(C)nnn3C3CCN(C(=N)N)CC3)n2)c1 [drawing 181] .
Key: 3.6

Exercise: Report value only: IC50, BRD4-D1 (Homo sapiens), CCCCc1cc(CCCC)cc(Oc2cccc(-c3c(C)nnn3C3CCNCC3)n2)c1 [drawing 195]
Key: 8.61

Exercise: Specify IC50 for Cc1cc(C)cc(Oc2cccc(-c3c(C)nnn3C3CCN(C(=N)N)CC3)c2)c1 [drawing 180] , system BRD4-D1 (Homo sapiens).
Key: 12

Exercise: System BRD4-D1 (Homo sapiens). Read-out IC50. Item Cc1nnn(C2CCNCC2)c1-c1cccc(Oc2cc(C3CCCCC3)cc(C3CCCCC3)c2)n1 [drawing 197] . Report value.
Key: 62.6

====

Exercise: for every item that follows, state its recorded IC50.
- TESTED TARGET: His9-BRD4 D1 (Homo sapiens, UniProt O60885)
- Construct: 7.5-60 nM for His9-tagged BRD4 D1
- MEASUREMENT PROTOCOL: AlphaScreen assay with His9-BRD4 D1
- CONDITION DETAILS: mean of two technical replicates
Answer format: numeric, nM implied, no suffix.

Exercise: # return IC50 of Cc1ccc(-c2ncn(C3CCNCC3)c2-c2ccnc(Nc3cc(C)cc(C)c3)n2)cc1 (system: His9-BRD4 D1 (Homo sapiens, UniProt O60885))
Key: 1100

Exercise: Answer briefly: IC50 recorded on His9-BRD4 D1 (Homo sapiens, UniProt O60885) for Cc1nnn(C2CCNCC2)c1-c1cccc(Oc2cc(C(F)(F)F)cc(C(F)(F)F)c2)n1 [drawing 263]
Key: 45600

Exercise: Enter IC50 (test system His9-BRD4 D1 (Homo sapiens, UniProt O60885)) for Cc1cc(C)cc(Nc2nccc(-c3c(-c4ccc(Cl)cc4)ncn3C3CCN(C(=N)N)CC3)n2)c1
Key: 1400

Exercise: Give reported IC50 for Cc1cc(C)cc(Nc2nccc(-c3c(CO)nnn3C3CCNCC3)n2)c1 (His9-BRD4 D1 (Homo sapiens, UniProt O60885))
Key: 160000

Exercise: Give His9-BRD4 D1 (Homo sapiens, UniProt O60885) IC50 for the following molecule: CC(=O)NCCN1CCC(n2cnc(-c3ccc(C(F)(F)F)cc3)c2-c2ccnc(Nc3cc(C)cc(C)c3)n2)CC1
Key: 1500

Exercise: Answer briefly: IC50 recorded on His9-BRD4 D1 (Homo sapiens, UniProt O60885) for CCC(C)c1cc(C)cc(Oc2cccc(-c3c(C)nnn3C3CCNCC3)n2)c1 (centres unmarked) [drawing 252]
Key: 7350

Exercise: Would you please give the reported IC50 of Cc1cc(C)cc(Oc2cccc(-c3c(-c4ccc(C(F)(F)F)cc4)ncn3C3CCN(CCN)CC3)n2)c1 with His9-BRD4 D1 (Homo sapiens, UniProt O60885)?
Key: 1300

Exercise: Under His9-BRD4 D1 (Homo sapiens, UniProt O60885), report IC50 for Cc1cc(C)cc(Nc2nccc(-c3c(-c4ccc(C(F)(F)F)cc4)ncn3C3CCN(CCN(C)C)CC3)n2)c1
Key: 200

Exercise: Report value only: IC50, His9-BRD4 D1 (Homo sapiens, UniProt O60885), Cc1cc(C)cc(Nc2nccc(-c3c(-c4ccccc4)ncn3C3CCNCC3)n2)c1
Key: 2600

Exercise: Provide the reported IC50 (system: His9-BRD4 D1 (Homo sapiens, UniProt O60885)) for CCCCc1cc(CCCC)cc(Oc2cccc(-c3c(C)nnn3C3CCNCC3)n2)c1 [drawing 259]
Key: 27700

Exercise: Give His9-BRD4 D1 (Homo sapiens, UniProt O60885) IC50 for the following molecule: Cc1cc(Oc2cccc(-c3c(C)nnn3C3CCNCC3)n2)cc(C(C)C)c1 [drawing 251]
Key: 4760
